Below, each entry is listed alongside its reported melting point.
Structures can show the parent of a compound that is named as a salt.

Field: example entries. Status: answers known.
Compound: CN(C(=O)C1(C)CCCCC1)[C@H](CC1CCCCC1)CN1CCN(c2cccc3c2OCCO3)CC1 (as salt: hydrochloride)
Result: 219 to 220 °C
--
Compound: COc1ccccc1C1=CCN(C[C@@H](CC2CCCCC2)NC(=O)C2(C)CCCCC2)CC1 (as salt: hydrochloride) (hydrate or solvate)
Result: 93 to 95 °C

From here, focus on the item given below.
# input Need melting point of COc1ccccc1C1CCN(C[C@@H](CC2CCCCC2)N(C)C(=O)C2CCCCC2)CC1 (as salt: hydrochloride) (hydrate or solvate) , thanks.
# output 135 to 137 °C

---

Molecular target: human 5-HT1A receptor (Homo sapiens, UniProt P08908)
Construct: expressed in transfected cells; host or cells: CHO cells (stably transfected)
Test: Antagonist activity: antagonism of 8-OHDPAT inhibition of forskolin-stimulated cAMP accumulation in transfected CHO cells
Assay type: cell-based
Conditions: CHO cells with human 5-HT1A receptor
Metric Name: IC50 (µM)
# output: bare number, implied unit µM

Structure As Smiles: COc1ccccc1N1CCN(C[C@@H](CC2CCCCC2)NC(=O)C2(C)CCCCC2)CC1
Units Label: µM
Quantitative Result: 0.0146
//
Structure As Smiles: COc1ccccc1C1=CCN(C[C@@H](CC2CCCCC2)NC(=O)C2(C)CCCCC2)CC1
Units Label: µM
Quantitative Result: 0.0455
//
Structure As Smiles: COc1ccccc1N1CCN(C[C@@H](CC2CCCCC2)NC=O)CC1
Units Label: µM
Quantitative Result: 0.0173

Now for the compound whose IC50 we want.
# input Given the entry COc1ccccc1C1CCN(C[C@@H](CC2CCCCC2)NC(=O)C(C)(C)C)CC1 , report its measured IC50.
# output 0.04

---

Structures can show the parent of a compound that is named as a salt.
Metric Name: melting point

Molecule: COc1ccccc1N1CCN(C[C@@H](CC2CCCCC2)N(C)C(=O)C2CCCCC2)CC1 (as salt: hydrochloride)
Result: 222 to 224 °C

# input Which measured melting point value corresponds to COc1ccccc1C1CCN(C[C@@H](CC2CCCCC2)NC(=O)C2CCCCC2)CC1 (as salt: hydrochloride) (hydrate or solvate) ?
# output 100 to 103 °C

# input Try this molecule too: O=C(N[C@H](CC1CCCCC1)CN1CCN(c2nc3ccccc3s2)CC1)C1CCCCC1 (as salt: hydrochloride)
# output 229 to 232 °C

# input Now the same for COc1ccccc1N1CCN(C[C@@H](CC2CCCCC2)N(C)C(=O)C2(C)CCCCC2)CC1 (as salt: hydrochloride)
# output 208 to 210 °C

# input Try O=C(N[C@H](CC1CCCCC1)CN1CCN(c2ncccn2)CC1)C1CCCCC1 (as salt: hydrochloride) next.
# output 121 to 123 °C

# input Request: COc1ccccc1N1CCN(C[C@@H](CC2CCCCC2)NC=O)CC1 (as salt: hydrochloride) (hydrate or solvate)
# output 157 to 159 °C

# input Try O=C(N[C@H](CC1CCCCC1)CN1CCN(c2nccc3ccccc23)CC1)C1CCCCC1 (as salt: hydrochloride) next.
# output 155 to 159 °C

# input Follow-up entry: COc1ccccc1C1CCN(C[C@@H](CC2CCCCC2)NC(=O)C2(C)CCCCC2)CC1 (as salt: hydrochloride) (hydrate or solvate)
# output 208 to 210 °C

# input Same question, COc1ccccc1C1CCN(C[C@@H](CC2CCCCC2)NC(=O)C(C)(C)C)CC1 (as salt: hydrochloride) (hydrate or solvate) this time
# output 97 to 99 °C

---

Where a name gives a salt, the structure may show the parent alone.
compounds and their reported melting point

Previously resolved entries follow.
Compound: CN(C(=O)C1CCCCC1)[C@H](CC1CCCCC1)CN1CCN(c2cccc3[nH]ccc23)CC1 (as salt: hydrochloride) (hydrate or solvate) [Example 7]
melting point: > 260 °C

Compound: COc1cccc(N2CCN(C[C@H](CC3CCCCC3)NC(=O)C3CCCCC3)CC2)n1 (as salt: hydrochloride) [Example 12]
melting point: 107 to 109 °C

Compound: O=C(N[C@H](CC1CCCCC1)CN1CCN(c2ncccn2)CC1)C1CCC1 (as salt: hydrochloride) [Example 11]
melting point: 112 to 114 °C

Compound: CN(C(=O)C1(C)CCCCC1)[C@H](CC1CCCCC1)CN1CCN(c2cccc3[nH]ccc23)CC1 (as salt: hydrochloride) [Example 8]
melting point: 253 to 254 °C

Compound: COc1ccccc1C1CCN(C[C@@H](CC2CCCCC2)N(C)C(=O)C(C)(C)C)CC1 (as salt: hydrochloride) (hydrate or solvate) [Example 20]
melting point: 233 to 236 °C

Okay, now this compound:
# input Which value of melting point has been reported for CN(C(=O)C1CCCCC1)[C@H](CC1CCCCC1)CN1CCN(c2cccc3c2OCCO3)CC1 (as salt: hydrochloride) (hydrate or solvate) [Example 5] in the records?
# output 147 to 148 °C

---

Entries and their IC50 values follow.
Target: human 5-HT1A receptor (Homo sapiens)
Construct: expressed in transfected cells; host or cells: CHO cells (stably transfected)
Sequence (P08908 1-422): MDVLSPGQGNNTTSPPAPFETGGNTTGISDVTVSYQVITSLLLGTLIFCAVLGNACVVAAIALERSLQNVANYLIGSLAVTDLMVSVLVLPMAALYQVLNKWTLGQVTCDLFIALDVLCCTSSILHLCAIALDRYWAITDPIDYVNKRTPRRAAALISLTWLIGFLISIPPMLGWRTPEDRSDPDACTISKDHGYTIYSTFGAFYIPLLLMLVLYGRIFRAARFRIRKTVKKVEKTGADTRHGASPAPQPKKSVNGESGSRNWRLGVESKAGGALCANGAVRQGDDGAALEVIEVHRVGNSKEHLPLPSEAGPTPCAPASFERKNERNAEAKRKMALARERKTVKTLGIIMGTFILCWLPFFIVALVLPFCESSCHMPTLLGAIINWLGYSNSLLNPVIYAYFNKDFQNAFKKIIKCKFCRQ
Test: Displacement of [3H] 8-OHDPAT from the 5-HT1A receptor in transfected CHO cells
Assay type: binding
Conditions: displacement of [3H] 8-OHDPAT; CHO cells stably transfected with the human 5-HT1A receptor; read-out: 5-HT1A Affinity (IC50)
Source text: Affinity for the serotonin 5-HT1A receptor was established by assaying the test compound's ability to displace [^3H] 8-OHDPAT from its binding site on the receptor complex in CHO cells stably transfected with the human 5-HT1A receptor following the procedure described by J. Dunlop, Y. Zhang, D. Smith and L. Schechter (Eur. J. Pharmacol., submitted; variation of a procedure described by J. Zgombick et al., Naunyn-Schmiedeberg's Arch. Pharmacol., 354, 226-236 (1996)).
Only the number, expressed in nM, is required.

Previously resolved entries follow.
Structure As Smiles: COc1ccccc1N1CCN(C[C@@H](CC2CCCCC2)NC(=O)C2CCCCC2)CC1
IC50 (nM): 0.57
//
Structure As Smiles: CN(C(=O)C1CCCCC1)[C@H](CC1CCCCC1)CN1CCN(c2cccc3c2OCCO3)CC1
IC50 (nM): 2.37
//
Structure As Smiles: COc1ccccc1C1CCN(C[C@@H](CC2CCCCC2)N(C)C(=O)C2(C)CCCCC2)CC1
IC50 (nM): 5.33

# input Report IC50 for COc1ccccc1C1CCN(C[C@@H](CC2CCCCC2)N(C)C(=O)C2CCCCC2)CC1 tested on human 5-HT1A receptor (Homo sapiens).
# output 1.69

---

Molecular target: human 5-HT1A receptor (Homo sapiens, UniProt P08908)
Test: Agonist activity: inhibition of forskolin-stimulated cAMP accumulation in transfected CHO cells
Details: CHO cells with human 5-HT1A receptor
Excerpt: Methods, 40, 47-55 (1998); variation of a procedure described by J. Zgombick et al., Naunyn-Schmiedeberg's Arch. Pharmacol., 354, 226-236 (1996)].
pEC50: −log10 of the molar value.
Think of 8 as a floor: if pEC50 stands on it or above, it is t; beneath it, f.

Illustrative cases are given below, each with its answer.
Molecule: O=C(N[C@H](CC1CCCCC1)CN1CCN(c2ncccn2)CC1)C1CCC1 [Example 11]
Group Label: f
//
Molecule: O=C(N[C@H](CC1CCCCC1)CN1CCN(c2nc3ccccc3s2)CC1)C1CCCCC1 [Example 13]
Group Label: t
//
Molecule: COc1ccccc1C1CCN(C[C@@H](CC2CCCCC2)NC(=O)C2CCCCC2)CC1 [Example 15]
Group Label: t
//
Molecule: COc1ccccc1N1CCN(C[C@@H](CC2CCCCC2)NC(=O)C2CCCCC2)CC1 [Example 1]
Group Label: t

// next entry
# input Would you say O=C(N[C@H](CC1CCCCC1)CN1CCN(c2ncccn2)CC1)C1CCCCC1 [Example 10] shows pEC50 at minimum 8?
# output t

// data source = patent US6518272B2
